System: T1, human pIgR, full-length, on cells (human, UniProt P01833 19-764)
T1 construct: whole, on cells; Used for the flow cytometry EC50 values (MDCK-hpIgR) and for the transcytosis read-outs; also called hpIgR; cell-surface hpIgR
T1 sequence (P01833 19-764): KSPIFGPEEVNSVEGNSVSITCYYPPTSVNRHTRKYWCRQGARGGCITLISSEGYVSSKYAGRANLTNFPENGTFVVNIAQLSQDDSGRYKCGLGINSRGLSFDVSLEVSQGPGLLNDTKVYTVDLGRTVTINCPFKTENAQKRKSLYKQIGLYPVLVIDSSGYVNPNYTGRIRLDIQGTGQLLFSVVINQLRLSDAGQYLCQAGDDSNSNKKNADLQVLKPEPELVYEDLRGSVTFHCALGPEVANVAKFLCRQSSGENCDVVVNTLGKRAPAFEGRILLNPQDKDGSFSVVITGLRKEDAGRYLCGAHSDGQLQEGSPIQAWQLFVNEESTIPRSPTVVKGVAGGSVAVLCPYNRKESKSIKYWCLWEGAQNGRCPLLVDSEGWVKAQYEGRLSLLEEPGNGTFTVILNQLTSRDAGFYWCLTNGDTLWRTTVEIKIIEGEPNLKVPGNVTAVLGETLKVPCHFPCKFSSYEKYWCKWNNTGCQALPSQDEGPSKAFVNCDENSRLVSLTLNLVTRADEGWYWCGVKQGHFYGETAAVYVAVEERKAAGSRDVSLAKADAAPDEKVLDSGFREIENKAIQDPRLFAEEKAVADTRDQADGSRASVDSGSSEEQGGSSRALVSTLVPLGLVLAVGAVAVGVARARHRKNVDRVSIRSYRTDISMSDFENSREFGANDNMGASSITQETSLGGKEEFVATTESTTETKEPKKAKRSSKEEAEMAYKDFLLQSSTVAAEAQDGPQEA
Assay notes: flow cytometry on MDCK-hpIgR cells
pEC50 values for the binders below.
Convention used: pEC50 is expressed as -log10 of the molar concentration.

Binder	Observed result
VHH12-linker-mono-Fc protein (Fc fusion, made in CHO cells; also called VHH12-mono-Fc; hpIgR_266) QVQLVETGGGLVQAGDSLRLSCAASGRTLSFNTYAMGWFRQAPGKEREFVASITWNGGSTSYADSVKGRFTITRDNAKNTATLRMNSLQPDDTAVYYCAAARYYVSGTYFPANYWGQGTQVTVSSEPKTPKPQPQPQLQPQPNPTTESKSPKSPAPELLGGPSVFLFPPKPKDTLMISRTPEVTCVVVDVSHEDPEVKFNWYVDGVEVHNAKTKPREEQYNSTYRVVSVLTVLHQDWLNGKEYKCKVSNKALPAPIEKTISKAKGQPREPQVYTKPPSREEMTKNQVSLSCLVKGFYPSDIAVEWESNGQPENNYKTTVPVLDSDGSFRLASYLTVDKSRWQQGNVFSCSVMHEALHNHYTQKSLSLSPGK	8.34

Attention now turns to another entry.
### Prompt Endpoint output: pEC50 of VHH6-linker-mono-Fc protein (Fc fusion, made in CHO cells; also called VHH6-mono-Fc; hpIgR_181) EVQLVESGGGLVQAGGSLRLSCAVSGSSVSSDAMGWYRQAPGNQRAWVAFISGGGTTTYADSVKGRFTISRDNTKNTVYLHMNSLKPEDTAVYYCNHPLTSRWGQGTQVTVSSEPKTPKPQPQPQLQPQPNPTTESKSPKSPAPELLGGPSVFLFPPKPKDTLMISRTPEVTCVVVDVSHEDPEVKFNWYVDGVEVHNAKTKPREEQYNSTYRVVSVLTVLHQDWLNGKEYKCKVSNKALPAPIEKTISKAKGQPREPQVYTKPPSREEMTKNQVSLSCLVKGFYPSDIAVEWESNGQPENNYKTTVPVLDSDGSFRLASYLTVDKSRWQQGNVFSCSVMHEALHNHYTQKSLSLSPGK . Value?
### Response 7.94
